- TESTED ON: 生物素化的SARS-CoV-2 RBD (SARS-CoV-2, UniProt P0DTC2 319-541)
- TEST DETAILS: ELISA screen, Fab culture supernatant on streptavidin-captured biotinylated RBD

BINDER	binding result
CB6-24 (轻链突变库克隆) (Fab, V domains shown, also called CB6-24-VL; CB6-24-LC) VH: EVQLVESGGGLVQPGGSLRLSCAASGFTVSSNYMSWVRQAPGKGLEWVSVIYSGGSTFYADSVKGRFTISRDNSMNTLFLQMNSLRAEDTAVYYCARVLPMYGDYLDYWGQGTLVTVSS VL: DIVMTQSPSSLSASVGDRVTITCRASQQISRYLNWYQQKPGKAPKLLIYAASSLQSGVPSRFSGSGSGTDFTLTISSLQPEDFATYYCQQSSSPTPEYTFGQGTKLEIK	binds
CB6-32 (轻链突变库克隆) (Fab, V domains shown, also called CB6-32-VL; CB6-32-LC) VH: EVQLVESGGGLVQPGGSLRLSCAASGFTVSSNYMSWVRQAPGKGLEWVSVIYSGGSTFYADSVKGRFTISRDNSMNTLFLQMNSLRAEDTAVYYCARVLPMYGDYLDYWGQGTLVTVSS VL: DIVMTQSPSSLSASVGDRVTITCRASQDIDGYLNWYQQKPGKAPKLLIYAASSLQSGVPSRFSGSGSGTDFTLTISSLQPEDFATYYCQQSASPVPEYTFGQGTKLEIK	binds
